- Measurement Notes: in vitro
- Measurement Conditions: chlorocebus sabaeus, Vero E6 (Vero C1008) cells, CC50
With a cut-off of 20 µM, any CC50 at 48 h strictly below it is called fulfilled; any CC50 at 48 h meeting it or above is called not fulfilled.

Worked examples follow.
INSERT INTO assay_data (compound, label_value) VALUES
  ('C#C[C@]1(O)CCC2C3CCc4cc(OC5CCCC5)ccc4C3CCC21C (some centres undefined)', 'fulfilled'),
  ('COc1ccc2nc3c(c(N)c2c1)CCCC3', 'not fulfilled'),
  ('CN(C)C(=O)c1cc2cnc(Nc3ccc(N4CCNCC4)cn3)nc2n1C1CCCC1', 'not fulfilled'),
  ('Cc1ccc(CCCO)c(NCc2ccc3nc(NCCCN4CCOCC4)n(Cc4nc(C)ccc4O)c3c2)c1', 'fulfilled'),
  ('COc1ccccc1OCCNCC(O)COc1cccc2[nH]c3ccccc3c12 (centres undefined)', 'fulfilled'),
  ('CC(C)(Cc1c[nH]c2ccccc12)NCC(O)COc1ccccc1C#N (centres undefined)', 'not fulfilled');

Exam item: Hello, I'm reviewing records and need to know if CC50 at 48 h of c1ccc(CN(CCN(Cc2ccccn2)Cc2ccccn2)Cc2ccccn2)nc1 is below 20 µM. Could you check?
Marked response: fulfilled

Exam item: Hello, I'm reviewing records and need to know if CC50 at 48 h of COc1cc(Br)c2oc(C3CCNCC3)cc2c1 is below 20 µM. Could you check?
Marked response: fulfilled

---

- Measurement Notes: in vitro
- Measurement Conditions: chlorocebus sabaeus, Vero E6 (Vero C1008) cells, CC50
With a cut-off of 20 µM, any CC50 at 48 h strictly below it is called yes (1); any CC50 at 48 h meeting it or above is called no (0).

Exam item: Hello, I'm reviewing records and need to know if CC50 at 48 h of Cc1c(O)cccc1C(=O)N[C@@H](CSc1ccccc1)[C@H](O)CN1C[C@H]2CCCC[C@H]2C[C@H]1C(=O)NC(C)(C)C is below 20 µM. Could you check?
Marked response: yes (1)

Exam item: Hello, I'm reviewing records and need to know if CC50 at 48 h of Nc1nc2nn[nH]c2c(=O)[nH]1 is below 20 µM. Could you check?
Marked response: no (0)

Exam item: Hello, I'm reviewing records and need to know if CC50 at 48 h of COc1ccc2c(c1)c(CC(=O)O)c(C)n2C(=O)c1ccc(Cl)cc1 is below 20 µM. Could you check?
Marked response: no (0)

Exam item: Hello, I'm reviewing records and need to know if CC50 at 48 h of COc1ccc2cc1Oc1ccc(cc1)C[C@H]1c3cc(c(OC)cc3CCN1C)Oc1c(OC)c(OC)cc3c1[C@H](C2)N(C)CC3 is below 20 µM. Could you check?
Marked response: yes (1)

Exam item: Hello, I'm reviewing records and need to know if CC50 at 48 h of Fc1ccc([C@@H]2CCNC[C@H]2COc2ccc3c(c2)OCO3)cc1 is below 20 µM. Could you check?
Marked response: yes (1)

Exam item: Hello, I'm reviewing records and need to know if CC50 at 48 h of NC(CO)(CO)CCc1ccc(Sc2cccc(OCc3ccccc3)c2)cc1Cl is below 20 µM. Could you check?
Marked response: yes (1)

Exam item: Hello, I'm reviewing records and need to know if CC50 at 48 h of CCC(CC)COC(=O)[C@H](C)N[P@](=O)(OC[C@H]1O[C@@](C#N)(c2ccc3c(N)ncnn23)[C@H](O)[C@@H]1O)Oc1ccccc1 is below 20 µM. Could you check?
Marked response: no (0)

Exam item: Hello, I'm reviewing records and need to know if CC50 at 48 h of CO[C@H]1CC[C@H](n2c([C@H]3CCCC(=O)N3c3ccc(F)c(F)c3)nc3cc(-c4c(C)noc4C)ccc32)CC1 (relative stereo) is below 20 µM. Could you check?
Marked response: yes (1)

Exam item: Hello, I'm reviewing records and need to know if CC50 at 48 h of CN1CCC(c2cc3cc(Cl)ccc3o2)CC1 is below 20 µM. Could you check?
Marked response: no (0)

Exam item: Hello, I'm reviewing records and need to know if CC50 at 48 h of Cc1nc2ccccn2c(=O)c1CCN1CCC(=C(c2ccc(F)cc2)c2ccc(F)cc2)CC1 is below 20 µM. Could you check?
Marked response: yes (1)

Exam item: Hello, I'm reviewing records and need to know if CC50 at 48 h of CC[C@@H]([C@H](C)O)n1ncn(-c2ccc(N3CCN(c4ccc(OC[C@@H]5CO[C@@](Cn6cncn6)(c6ccc(F)cc6F)C5)cc4)CC3)cc2)c1=O is below 20 µM. Could you check?
Marked response: no (0)

Exam item: Hello, I'm reviewing records and need to know if CC50 at 48 h of CN1CCCC(n2nc(Cc3ccc(Cl)cc3)c3ccccc3c2=O)CC1 (configuration not stated) is below 20 µM. Could you check?
Marked response: yes (1)

Exam item: Hello, I'm reviewing records and need to know if CC50 at 48 h of N=C(N)c1ccc(C=C2c3ccccc3-c3ccccc32)cc1 is below 20 µM. Could you check?
Marked response: yes (1)

Exam item: Hello, I'm reviewing records and need to know if CC50 at 48 h of O=C(N[C@H]1CN2CCC1CC2)c1cc2cccc(Cl)c2s1 is below 20 µM. Could you check?
Marked response: no (0)

Exam item: Hello, I'm reviewing records and need to know if CC50 at 48 h of CCN(CCO)CCCC(C)Nc1ccnc2cc(Cl)ccc12 (configuration not stated) [HYDROXYCHLOROQUINE] is below 20 µM. Could you check?
Marked response: no (0)

Exam item: Hello, I'm reviewing records and need to know if CC50 at 48 h of C[C@H]1c2ccccc2[C@@H](CCCN(C)C)c2cc(C(F)(F)F)ccc21 is below 20 µM. Could you check?
Marked response: yes (1)

---

- Measurement Notes: in vitro
- Measurement Conditions: chlorocebus sabaeus, Vero E6 (Vero C1008) cells, CC50
Quantity: CC50 at 48 h (µM)
Answer in µM, number only, no unit symbol.

INSERT INTO measurements (line_notation, unit_abbrev, reported_result) VALUES
  ('COc1ccccc1N1CCN(CCCCNC(=O)c2ccc3ccccc3c2)CC1', 'µM', 30.2);

Query compound follows.
Reported CC50 at 48 h ( Cc1cc2cc(Oc3ccnc(Nc4cccc(CS(=O)(=O)NCCN(C)C)c4)n3)ccc2[nH]1 ) = 4.9

---

- Test system: SARS-CoV-2
- Measurement Notes: microbe, parasite or virus in culture
- Measurement Conditions: Severe acute respiratory syndrome coronavirus 2, Vero C1008, 48 h
pIC50: −log10 of the molar value.
Quantity: pIC50

Solved entries:
INSERT INTO assay_data (compound, assayed_system, quantity, reported_result) VALUES
  ('CS(=O)(=O)c1ccc(C2=C(c3ccccc3)C(=O)OC2)cc1 [ROFECOXIB]', 'SARS-CoV-2', 'pIC50', '< 4.70'),
  ('COc1ccc2c(c1O)-c1c(OC)c(OC)cc3c1[C@H](C2)N(C)CC3 [ISOCORYDINE]', 'SARS-CoV-2', 'pIC50', '< 4.70'),
  ('CCCCc1nc2cc(/C=C/C(=O)NO)ccc2n1CCN(CC)CC [PRACINOSTAT]', 'SARS-CoV-2', 'pIC50', '< 4.70');

Query compound follows.
Reported pIC50 ( NCC1O[C@H](O[C@@H]2C(N)C[C@@H](N)C(O[C@H]3OC(CO)[C@@H](O)C(N)C3O)C2O)C(N)C(O)[C@@H]1O (some centres undefined) ) = < 4.70

---

Attribute: IC50
- System: SARS-CoV-2
- Measurement Notes: microbe, parasite or virus in culture
- Measurement Conditions: Severe acute respiratory syndrome coronavirus 2, Vero C1008, 48 h

Solved entries:
INSERT INTO measurements (compound, reported_result) VALUES
  ('COc1ccc2c(c1OC)C(=O)O[C@H]2[C@@H]1c2c(cc3c(c2OC)OCO3)CCN1C', '> 20 µM'),
  ('O=C(c1ccc(F)cc1)C1CCN(CCCCn2c(=O)[nH]c3ccccc3c2=O)CC1 [BUTANSERIN]', '> 20 µM'),
  ('CCOc1ccc(-c2ccc(Cn3c(CC(C)(C)C(=O)O)c(SC(C)(C)C)c4cc(OCc5ccc(C)cn5)ccc43)cc2)cn1 [FIBOFLAPON]', '> 20 µM'),
  ('CN(C)Cc1c[nH]c2ccccc12 [GRAMINE]', '> 20 µM'),
  ('COc1cccc(N2CCN(C3=Nc4c(F)cccc4C(CC(=O)O)N3c3cc(C(F)(F)F)ccc3OC)CC2)c1 (centres undefined)', '> 20 µM');

Reported IC50 ( CS(=N)(=O)CCC(N)C(=O)O (centres undefined) ) = > 20 µM

Reported IC50 ( CC1NCCOC1c1ccccc1 (centres undefined) [PHENMETRAZINE] ) = > 20 µM

Reported IC50 ( Oc1c(I)cc(I)c2cccnc12 [IODOQUINOL] ) = > 20 µM

Reported IC50 ( CC12C=CC(=O)C=C1CCC1C2C(=O)CC2(C)C1CC[C@]2(O)C(=O)CO (some centres undefined) ) = > 20 µM
